Test system: NCI-H226
Experiment: NCI-60 one-dose screening
Type: cell-based
Details: Homo sapiens, NCI-H226, Non-Small Cell Lung Cancer, read-out: GI (%)
Procedure: Compounds 5a–c and 6a–o were tested using standard NCI protocols for in vitro activity at the National Cancer Institute (NCI, Bethesda, Maryland, USA), wherein compounds were tested using one single concentration of 10 μM against 60 cell lines of nine different cancer types. […] Excellent activity was observed against a single NSCLC cell line, EKVX, for compounds 5a–c (GIs = 77–86%, Table 1) with no observed activity for indoles with substituted vanillin 6a–o. […]
Measured endpoint: inhibition at 10 µM (%)

| Compound | Reported value |
| --- | --- |
| COc1cc(/C=C2/C(=O)Nc3cc(Cl)ccc32)ccc1O | 10 |
| COc1ccc(COc2ccc(/C=C3/C(=O)Nc4ccc(Cl)cc43)cc2OC)cc1 | 3.61 |
| COc1cc(C=C2C(=O)Nc3ccc(Cl)cc32)ccc1OCc1ccc(F)cc1 (mixture of isomers) | 4.31 |
| COc1ccc(COc2ccc(/C=C3/C(=O)Nc4ccccc43)cc2OC)cc1 | -3.18 |
| COc1cc(C=C2C(=O)Nc3ccc(Cl)cc32)ccc1OCc1ccc(Cl)cc1 (mixture of isomers) | 17.1 |
| COc1cc(C=C2C(=O)Nc3ccccc32)ccc1OCc1ccccn1 (mixture of isomers) | 6.29 |
| COc1cc(C=C2C(=O)Nc3ccccc32)ccc1O (mixture of isomers) | -2.09 |
| COc1cc(C=C2C(=O)Nc3ccc(Cl)cc32)ccc1OCc1ccccn1 (mixture of isomers) | 6.59 |
| COc1cc(/C=C2/C(=O)Nc3ccccc32)ccc1OCc1ccc(Cl)cc1 | 3.35 |
| COc1cc(/C=C2/C(=O)Nc3ccc(Cl)cc32)ccc1OCc1ccccc1 | 1.24 |
| COc1cc(C=C2C(=O)Nc3ccc(Cl)cc32)ccc1O (mixture of isomers) | 2.25 |
| COc1cc(/C=C2/C(=O)Nc3cc(Cl)ccc32)ccc1OCc1ccc(F)cc1 | 8.79 |
| COc1cc(/C=C2/C(=O)Nc3cc(Cl)ccc32)ccc1OCc1ccccn1 | 5.24 |
| COc1cc(C=C2C(=O)Nc3cc(Cl)ccc32)ccc1OCc1ccc(Cl)cc1 (mixture of isomers) | 4.89 |
| COc1cc(C=C2C(=O)Nc3ccccc32)ccc1OCc1ccccc1 (mixture of isomers) | -0.06 |
| COc1cc(/C=C2/C(=O)Nc3cc(Cl)ccc32)ccc1OCc1ccccc1 | 1.98 |
| COc1ccc(COc2ccc(/C=C3/C(=O)Nc4cc(Cl)ccc43)cc2OC)cc1 | 6.67 |
| COc1cc(/C=C2/C(=O)Nc3ccccc32)ccc1OCc1ccc(F)cc1 | -0.42 |

---

Test system: MCF-7 cells
Experiment: iCELLigence real-time cell analysis
Type: cell-based, human
Conditions: Homo sapiens, MCF7; MCF-7; 72 h after treatment
Measured endpoint: IC50 (µM)

| Compound | Measured endpoint | Unit of measure | Reported value |
| --- | --- | --- | --- |
| COc1cc(C=C2C(=O)Nc3ccc(Cl)cc32)ccc1OCc1ccccn1 (mixture of isomers) [6j] | IC50 | µM | 17 |

---

// inhibition at 10 µM lookup, one value per entry
Tested on: SNB-75
Assay: NCI-60 one-dose screening
Assay type: cell-based
Conditions: Homo sapiens, SNB-75, CNS Cancer, read-out: GI (%)

| Compound | Unit of measure | inhibition at 10 µM |
| --- | --- | --- |
| COc1cc(C=C2C(=O)Nc3ccc(Cl)cc32)ccc1OCc1ccc(Cl)cc1 (mixture of isomers) | % | 28.1 |
| COc1cc(/C=C2/C(=O)Nc3cc(Cl)ccc32)ccc1OCc1ccccn1 | % | -0.58 |
| COc1cc(C=C2C(=O)Nc3ccc(Cl)cc32)ccc1OCc1ccccn1 (mixture of isomers) | % | 14.8 |
| COc1cc(C=C2C(=O)Nc3ccc(Cl)cc32)ccc1OCc1ccc(F)cc1 (mixture of isomers) | % | 22.3 |

---

Experiment: iCELLigence real-time cell analysis
Assay type: cell-based, human
Conditions: human, MCF-12A cells (non-tumorigenic mammary epithelial); MCF-12A; 2 μM; 48 h; relative to control; read-out: cell viability (% ± SEM)
Measured endpoint: viability at 48 h, 2 µM (%)

| Compound | Measured endpoint | Reported value |
| --- | --- | --- |
| COc1cc(C=C2C(=O)Nc3ccc(Cl)cc32)ccc1OCc1ccccn1 (mixture of isomers) [6j] | viability at 48 h, 2 µM | 97.4 |

---

Test system: MCF-12A cells
Test: iCELLigence real-time cell analysis
Assay type: cell-based, human
Details: Homo sapiens; MCF-12A; 24 h after treatment
pIC50: −log10 of the molar value.

| Molecule | pIC50 |
| --- | --- |
| COc1cc(C=C2C(=O)Nc3ccc(Cl)cc32)ccc1OCc1ccccn1 (mixture of isomers) | 3.30 |

---

Assay: iCELLigence real-time cell analysis
Format: cell-based, human
Settings: human, MCF-12A cells; MCF-12A; 100 μM; 24 h; relative to control; read-out: cell viability (% ± SEM)

| Compound | viability at 24 h, 100 µM [%] |
| --- | --- |
| COc1cc(C=C2C(=O)Nc3ccc(Cl)cc32)ccc1OCc1ccccn1 (mixture of isomers) | 82 |

---

Tested on: HL-60(TB)
Assay: NCI-60 one-dose screening
Type: cell-based
Conditions: Homo sapiens, Leukemias, read-out: GI (%)

| Compound | inhibition at 10 µM, % |
| --- | --- |
| COc1cc(C=C2C(=O)Nc3ccccc32)ccc1OCc1ccccc1 (mixture of isomers) | -10.5 |
| COc1ccc(COc2ccc(/C=C3/C(=O)Nc4cc(Cl)ccc43)cc2OC)cc1 | -13.9 |
| COc1cc(/C=C2/C(=O)Nc3ccc(Cl)cc32)ccc1OCc1ccccc1 | 0.49 |
| COc1cc(/C=C2/C(=O)Nc3ccccc32)ccc1OCc1ccc(Cl)cc1 | -13.4 |
| COc1cc(C=C2C(=O)Nc3ccc(Cl)cc32)ccc1OCc1ccc(F)cc1 (mixture of isomers) | -2.34 |
| COc1cc(C=C2C(=O)Nc3ccc(Cl)cc32)ccc1O (mixture of isomers) | 23.1 |
| COc1cc(C=C2C(=O)Nc3cc(Cl)ccc32)ccc1OCc1ccc(Cl)cc1 (mixture of isomers) | -11.5 |
| COc1cc(C=C2C(=O)Nc3ccc(Cl)cc32)ccc1OCc1ccc(Cl)cc1 (mixture of isomers) | -1.67 |
| COc1cc(/C=C2/C(=O)Nc3ccccc32)ccc1OCc1ccc(F)cc1 | -15.2 |
| COc1cc(/C=C2/C(=O)Nc3cc(Cl)ccc32)ccc1OCc1ccc(F)cc1 | -20.4 |
| COc1ccc(COc2ccc(/C=C3/C(=O)Nc4ccccc43)cc2OC)cc1 | -14.7 |
| COc1cc(/C=C2/C(=O)Nc3cc(Cl)ccc32)ccc1OCc1ccccn1 | -17.3 |
| COc1cc(C=C2C(=O)Nc3ccc(Cl)cc32)ccc1OCc1ccccn1 (mixture of isomers) | 3.78 |
| COc1cc(C=C2C(=O)Nc3ccccc32)ccc1O (mixture of isomers) | 15.1 |
| COc1cc(/C=C2/C(=O)Nc3cc(Cl)ccc32)ccc1O | 13.9 |
| COc1ccc(COc2ccc(/C=C3/C(=O)Nc4ccc(Cl)cc43)cc2OC)cc1 | 0.37 |
| COc1cc(/C=C2/C(=O)Nc3cc(Cl)ccc32)ccc1OCc1ccccc1 | -20.2 |
| COc1cc(C=C2C(=O)Nc3ccccc32)ccc1OCc1ccccn1 (mixture of isomers) | 13 |

---

Test system: NCI-H23
Assay: NCI-60 one-dose screening
Type: cell-based
Conditions: Homo sapiens, NCI-H23, Non-Small Cell Lung Cancer, read-out: GI (%)
The following compounds are shown together with reported inhibition at 10 µM values.
Measured endpoint: inhibition at 10 µM (%)

| Compound | Reported value |
| --- | --- |
| COc1cc(/C=C2/C(=O)Nc3cc(Cl)ccc32)ccc1OCc1ccccn1 | 4.55 |
| COc1cc(/C=C2/C(=O)Nc3ccccc32)ccc1OCc1ccc(F)cc1 | 1.03 |
| COc1cc(C=C2C(=O)Nc3ccccc32)ccc1OCc1ccccc1 (mixture of isomers) | -2.84 |
| COc1cc(/C=C2/C(=O)Nc3cc(Cl)ccc32)ccc1OCc1ccccc1 | 2.27 |
| COc1cc(C=C2C(=O)Nc3ccccc32)ccc1O (mixture of isomers) | 16 |
| COc1ccc(COc2ccc(/C=C3/C(=O)Nc4ccc(Cl)cc43)cc2OC)cc1 | 3.99 |
| COc1cc(/C=C2/C(=O)Nc3ccc(Cl)cc32)ccc1OCc1ccccc1 | 1.55 |
| COc1cc(C=C2C(=O)Nc3cc(Cl)ccc32)ccc1OCc1ccc(Cl)cc1 (mixture of isomers) | 0.58 |
| COc1cc(C=C2C(=O)Nc3ccc(Cl)cc32)ccc1OCc1ccc(F)cc1 (mixture of isomers) | 18.8 |
